assay: Cytotoxicity against LPS-stimulated mouse RAW264.7 cells assessed as cell viability at 5 ug/ml after 24 hrs by MTT assay relative to control; type: cell-based; settings: LPS-stimulated RAW264.7 cells, read-out: Activity
Label Met when viability at 24 h, 5 ug/ml is strictly below 90%; at or above that, label Not met.

State whether 90% exceeds viability at 24 h, 5 ug/ml recorded for `COc1ccc(CCCc2cccc(O)c2)cc1OC` .
Not met

State whether 90% exceeds viability at 24 h, 5 ug/ml recorded for `COc1ccc(CCCc2ccc(OC)c(OC)c2)cc1` .
Not met

State whether 90% exceeds viability at 24 h, 5 ug/ml recorded for `COc1cc(CCCc2cccc(OC)c2OC)ccc1O` .
Not met

State whether 90% exceeds viability at 24 h, 5 ug/ml recorded for `COc1ccc(CCCc2ccc(OC)c(OC)c2)cc1OC` .
Not met

State whether 90% exceeds viability at 24 h, 5 ug/ml recorded for `COc1ccc(C(=O)/C=C/c2ccc3c(c2)OCO3)c(OC)c1` .
Met

State whether 90% exceeds viability at 24 h, 5 ug/ml recorded for `COc1ccc(/C=C/C(=O)c2cccc(O)c2)cc1OC` .
Met

State whether 90% exceeds viability at 24 h, 5 ug/ml recorded for `COc1cc(/C=C/C(=O)c2cccc(O)c2)ccc1O` .
Met

State whether 90% exceeds viability at 24 h, 5 ug/ml recorded for `COc1cccc(CCCc2cccc(O)c2)c1OC` .
Not met

State whether 90% exceeds viability at 24 h, 5 ug/ml recorded for `COc1ccc(C(=O)CCc2ccc(OC)c(OC)c2)c(O)c1` .
Met
